Value source: paper PMC3086652

Quick reference for IC50 among some sequences
# TEST_TARGET: HLA A*0201 (Homo sapiens, UniProt P04439, D140Y/D185E/D98H/E176V/E277Q/G131W/G231S/I119V/I121R/I166T/I218V/L300P/L318F/N151K/N90K/P208A/P217A/Q86G/Q94H/R138H/R169H/T345S)
# EXPERIMENT_DESCRIPTION: biochemical
# Format: binding
Ends that are not written are not given here.
Numbers only here, please. The scale is µM.

Consider the worked cases shown below.
CONSTRUCT_SEQUENCE: TINAWIKVV [TV9p30]
MEASURE_NAME: IC50
MEASURED_RESULT: 4.23
//
CONSTRUCT_SEQUENCE: KINAWIKGV [TV9p5]
MEASURE_NAME: IC50
MEASURED_RESULT: 0.536
//
CONSTRUCT_SEQUENCE: KINAWIKVV [TV9p6]
MEASURE_NAME: IC50
MEASURED_RESULT: 5.12

// below: IC50 requested for another sequence
Q: Recorded IC50 of TINAWIKGV [TV9p29] , please.
Result: 1.06
